Assay remarks: background-corrected fluorescence of 3'-dye-labeled ssDNA relative to brightest sequence (3'-GCGCG) (fraction); higher = brighter dye fluorescence (less quenching)
Details: dye: Cy5 (3' terminal)

{"Query sequence": "TTTTTGCAGCAGCAGCATGCTTTTTTTTTTTTTTTTTTTA [ATTTT]", "background-corrected fluorescence": 0.411}
{"Query sequence": "TTTTTTGATCATCAGCATCATTTTTTTTTTTTTTTCGGTG [GTGGC]", "background-corrected fluorescence": 0.484}
{"Query sequence": "TTTTTGCAGCAGCAGCAGCATTTTTTTTTTTTTTTTTTTT", "background-corrected fluorescence": 0.34}
{"Query sequence": "TTTTTTGATGCGCATGATGATTTTTTTTTTTTTTTCATCC [CCTAC]", "background-corrected fluorescence": 0.273}
{"Query sequence": "TTTTTTGAGCATGCGCATGCTTTTTTTTTTTTTTTCTATA [ATATC]", "background-corrected fluorescence": 0.411}
{"Query sequence": "TTTTTTCATCATGCTGATCATTTTTTTTTTTTTTTGGACG [GCAGG]", "background-corrected fluorescence": 0.455}
{"Query sequence": "TTTTTTGATGATGATCATGCTTTTTTTTTTTTTTTCCCGA [AGCCC]", "background-corrected fluorescence": 0.554}
{"Query sequence": "TTTTTGCATCATCATGCGCATTTTTTTTTTTTTTTTGGAT [TAGGT]", "background-corrected fluorescence": 0.458}
{"Query sequence": "TTTTTGCAGCATGATGATGCTTTTTTTTTTTTTTTTTCCA [ACCTT]", "background-corrected fluorescence": 0.35}
{"Query sequence": "TTTTTTGATGATGCGCAGCATTTTTTTTTTTTTTTCCATT [TTACC]", "background-corrected fluorescence": 0.357}

Recorded values, source the supplement of paper PMC9428881.
